Source: the NIST ThermoML archive (doi:10.1016/j.jct.2016.08.005)

condition: 283.15 K; 100 kPa; Liquid; Vibrating tube method
reported.endpoint: mass density (kg/m3)
Report only the number, with the unit kg/m3 understood.

# smiles.str, mass density / kg/m3
data = [
    ("c1ccsc1", 1076.4),
    ("Cc1ccsc1", 1031.82),
    ("Cc1ccc(C)s1", 995.51),
]

Could you now consider this next compound?
Lab note: `Cc1cccs1` gave mass density of 1030.98

----------
The reader will find reported mass density values listed item by item below.
condition: 318.15 K; 35000 kPa; Liquid; Vibrating tube method
Your answer is read as kg/m3, so omit the unit and give the number.

Solved entries:
# smiles.str, mass density [kg/m3]
data = [
    ("c1ccsc1", 1065.02),
    ("Cc1ccc(C)s1", 988.06),
    ("Cc1ccsc1", 1022.99),
]

Kindly consider the entry below.
Data point: `Cc1cccs1` ; mass density = 1021.93

----------
condition: 283.15 K; 50000 kPa; Liquid; Vibrating tube method
# mass density annotations
Just the number in kg/m3, nothing appended.

// known answers, use as guide
# smiles.str, test.result
measured = [
    ("Cc1ccc(C)s1", 1028.12),
    ("Cc1ccsc1", 1064.22),
    ("Cc1cccs1", 1063.97),
]

GET /value?item= `c1ccsc1` &field=mass density returns 1110.71

----------
condition: 308.15 K; 50000 kPa; Liquid; Vibrating tube method
Below, each entry is listed with its recorded mass density.
Respond with the bare value in kg/m3.

# compound, reported.endpoint, test.result
measured = [
    ("Cc1cccs1 [2-methylthiophene]", "mass density", 1041.29),
    ("Cc1ccc(C)s1 [2,5-dimethylthiophene]", "mass density", 1006.66),
    ("c1ccsc1 [thiophene]", "mass density", 1085.8),
]

# context switch: different compound, same mass density
Looking up Cc1ccsc1 [3-methylthiophene] , I found its mass density recorded as 1041.98

----------
condition: 293.15 K; 45000 kPa; Liquid; Vibrating tube method
reported.endpoint: mass density (kg/m3)
# number only, unit kg/m3 dropped from output

// solved cases for mass density follow
# smiles.str, endpoint.unit, test.result
data = [
    ("c1ccsc1", "kg/m3", 1097.57),
    ("Cc1cccs1", "kg/m3", 1051.85),
    ("Cc1ccc(C)s1", "kg/m3", 1016.49),
]

From here, focus on the item given below.
// mass density value for `Cc1ccsc1` : 1052.31

----------
Entries annotated with measured mass density
condition: 333.15 K; 15000 kPa; Liquid; Vibrating tube method
Express the result in kg/m3 but write the number alone.

# compound, endpoint.unit, test.result
records = [
    ("Cc1ccc(C)s1 [2,5-dimethylthiophene]", "kg/m3", 958.46),
]

// mass density lookup, compound = Cc1cccs1 [2-methylthiophene] , result: 991.02

Lab note: Cc1ccsc1 [3-methylthiophene] gave mass density of 992.67

Quick note, mass density for c1ccsc1 [thiophene] landed at 1031.63

----------
condition: 298.15 K; 30000 kPa; Liquid; Vibrating tube method
reported.endpoint: mass density (kg/m3)
Express it in kg/m3; write the number only.

# count of solved cases: 3
# smiles.str, mass density, kg/m3
measured = [
    ("Cc1ccc(C)s1", 1002.53),
    ("c1ccsc1", 1082.3),
    ("Cc1cccs1", 1037.45),
]

Moving on to the next compound.
Field mass density (entry `Cc1ccsc1` ) reads 1038.2
